Biological target: human GM-CSF I117 (human, UniProt P04141 18-144)
Sequence (P04141 18-144 limits assumed): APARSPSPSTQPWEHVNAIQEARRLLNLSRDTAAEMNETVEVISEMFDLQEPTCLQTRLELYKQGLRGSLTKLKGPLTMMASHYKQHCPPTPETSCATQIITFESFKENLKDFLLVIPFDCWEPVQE
Experiment: cell-based or functional assay
Recorded IC50, inhibition of GM-CSF induced TF-1 proliferation (32 pM GM-CSF) values for a group of binders are listed next.
Measure: IC50, inhibition of GM-CSF induced TF-1 proliferation (32 pM GM-CSF) (pM)

1. MSB0010599 4K21 (4K21 hVH S55R-T62S hVL N28I-H34S-N53R-H93Y) (antibody, V domains shown, IgG) VH: EVQLVESGGGLVQPGGSLRLSCAASGFAFSAYDMSWVRQAPGKRLELVAYISSGGRSFYYPDSVKGRFTISRDNAKNSLYLQMNSLRAEDTAVYYCTRHLGFDYWGQGTLVTVSS VL: DIVMTQSPLSLPVTPGEPASISCRSSQSLVNSIGNTYLSWYLQKPGQSPQLLIYKVSRRFSGVPDRFSGSGSGTDFTLKISRVEAEDVGVYYCSQSTYVPPTFGQGTKVEIK    18
2. MSB0010602 4K21 (4K21 hVH S55K-T62S hVL S27eY-N28I-H34S-N53R-H93Y) (antibody, V domains shown, IgG) VH: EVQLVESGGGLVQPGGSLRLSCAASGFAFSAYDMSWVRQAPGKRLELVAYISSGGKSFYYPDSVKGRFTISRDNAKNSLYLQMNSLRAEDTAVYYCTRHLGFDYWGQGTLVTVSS VL: DIVMTQSPLSLPVTPGEPASISCRSSQSLVNYIGNTYLSWYLQKPGQSPQLLIYKVSRRFSGVPDRFSGSGSGTDFTLKISRVEAEDVGVYYCSQSTYVPPTFGQGTKVEIK    20
3. MSB0010601 4K21 (4K21 hVH S55K-T62S hVL N28I-H34S-N53R-H93Y) (antibody, V domains shown, IgG; also called optimized 4K21 antibody) VH: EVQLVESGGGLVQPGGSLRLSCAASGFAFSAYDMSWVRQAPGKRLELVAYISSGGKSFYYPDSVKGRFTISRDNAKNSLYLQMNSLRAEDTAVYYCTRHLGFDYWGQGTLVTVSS VL: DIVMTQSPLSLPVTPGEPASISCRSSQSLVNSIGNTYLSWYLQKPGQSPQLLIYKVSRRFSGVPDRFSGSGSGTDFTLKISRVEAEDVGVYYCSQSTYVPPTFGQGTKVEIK    23

The origin of these recorded values is patent US20140065163A1.
